# assayed_system: UniProtKB O94806
# Sequence (O94806 whole entry, looked up): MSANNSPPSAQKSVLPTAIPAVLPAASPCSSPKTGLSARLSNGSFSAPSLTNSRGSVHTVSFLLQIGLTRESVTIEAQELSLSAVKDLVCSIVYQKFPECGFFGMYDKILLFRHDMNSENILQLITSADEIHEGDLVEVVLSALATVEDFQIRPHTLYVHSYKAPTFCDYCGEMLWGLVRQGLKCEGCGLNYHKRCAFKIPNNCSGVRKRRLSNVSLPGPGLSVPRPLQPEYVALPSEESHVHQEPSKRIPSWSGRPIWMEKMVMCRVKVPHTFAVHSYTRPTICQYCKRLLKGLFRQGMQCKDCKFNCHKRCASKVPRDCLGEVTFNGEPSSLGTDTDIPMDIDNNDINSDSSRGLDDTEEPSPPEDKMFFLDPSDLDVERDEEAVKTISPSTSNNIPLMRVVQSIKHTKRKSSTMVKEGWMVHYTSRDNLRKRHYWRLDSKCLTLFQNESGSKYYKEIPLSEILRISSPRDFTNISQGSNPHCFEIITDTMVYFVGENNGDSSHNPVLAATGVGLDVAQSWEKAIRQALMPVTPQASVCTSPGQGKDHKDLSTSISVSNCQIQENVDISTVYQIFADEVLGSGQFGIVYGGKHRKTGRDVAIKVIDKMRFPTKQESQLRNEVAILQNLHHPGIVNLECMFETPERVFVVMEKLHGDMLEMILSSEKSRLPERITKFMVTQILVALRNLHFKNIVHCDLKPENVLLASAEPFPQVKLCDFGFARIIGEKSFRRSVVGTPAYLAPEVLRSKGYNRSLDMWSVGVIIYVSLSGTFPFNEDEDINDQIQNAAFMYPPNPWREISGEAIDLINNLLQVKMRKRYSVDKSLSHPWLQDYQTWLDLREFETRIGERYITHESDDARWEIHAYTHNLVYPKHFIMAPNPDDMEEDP
# procedure_summary: radiometric filter-binding kinase assay, Kinase HotSpot
# conditions: compound 0.5 µM; ATP 10 µM
property: residual activity (%)
Number in %, nothing else.

// residual activity lookup, key: `O=C(CCCc1ccc(-c2ccccc2F)cc1)Nc1ccc(O)cc1`
96.9

Report residual activity for `Cn1sc(=O)n(Cc2ccccc2)c1=O` please.
95.9

Could you tell me which residual activity is on file for `Cc1nc2cc3nc(-c4cccs4)cnc3cc2n1C` ?
97.1

What measured residual activity goes with `O=C1NC(=O)C(c2c[nH]c3ccccc23)=C1c1c[nH]c2ccccc12` ?
88.4

Endpoint output: residual activity of `COc1cc2ncc(-c3ccccc3)nc2cc1OC` . Value?
91.1

What value of residual activity has been recorded for this entry: `CN([C@@H](Cc1ccc(OS(=O)(=O)c2cccc3cnccc23)cc1)C(=O)N1CCN(c2ccccc2)CC1)S(=O)(=O)c1cccc2cnccc12`
99.2

What does the record list as residual activity for `O=C(O)/C=C/c1cc(Br)c(Br)c(Br)c1Br` ?
87.9

# lookup: residual activity of `CC(C)c1nn(-c2c(Cl)cccc2Cl)c2nc(Cc3ccc(OCCO)cc3)nc(O)c12`
92.3

Returns the measured residual activity for the input compound. Input: `CN(C)C[C@H]1CCn2c(c(C3=C(c4cn(C)c5ccccc45)C(=O)NC3=O)c3ccccc32)C1`
93.6

Entry `O=C(Nc1cccc(Nc2cc(Nc3cccc(C(F)(F)F)c3)ncn2)c1)C1CC1` has what residual activity?
96.9

Need residual activity of `Nc1nccc(-c2c(-c3ccc(F)cc3)ncn2C2CCNCC2)n1` , thanks.
37.9

Which residual activity value is on record for `Oc1ccc(Nc2nc(-c3ccc(Cl)cc3)cs2)cc1` ?
97.7

Would you mind telling me what residual activity value was observed for `Cn1cnc2cc3c(Nc4cccc(Br)c4)ncnc3cc21` ?
93.1

====

# assayed_system: MAP3K9 (human)
# procedure_summary: radiometric filter-binding kinase assay, Kinase HotSpot
# conditions: compound 0.5 µM; ATP 10 µM
property: residual activity (%)
Give just the numeric value; % need not be written.

Any idea what its residual activity is? The compound is `COc1ccc(OC)c2c(=S)c3ccccc3[nH]c12`
102

// returns reported residual activity for input `CN(C)C[C@H]1CCn2c(c(C3=C(c4cn(C)c5ccccc45)C(=O)NC3=O)c3ccccc32)C1`
90.8

What residual activity value was documented for this compound, `Nc1nccc(-c2c(-c3ccc(F)cc3)ncn2C2CCNCC2)n1` ?
94.5

Recorded residual activity for `O=C(Nc1cccc(Nc2cc(Nc3cccc(C(F)(F)F)c3)ncn2)c1)C1CC1` , please?
107

For the compound shown here, `O=C1Nc2ccccc2/C1=C1\Nc2ccccc2\C1=N/O` , give the reported residual activity.
19.1

Recorded residual activity for `COc1ccc(CNC(=O)Nc2ncc([N+](=O)[O-])s2)cc1` , please?
101

====

So I've got a bunch of molecules here, and I need their residual activity values.
# assayed_system: LRRK2 (human)
# procedure_summary: radiometric filter-binding kinase assay, Kinase HotSpot
# conditions: compound 0.5 µM; ATP 10 µM
Just the number please, in %, no unit attached.

What reported residual activity corresponds to `O=C1Cc2c([nH]c3ccc(Br)cc23)-c2ccccc2N1` on LRRK2 (human)?
78.7

Observed residual activity on LRRK2 (human) for `CCn1cnc2c(Nc3cccc(Cl)c3)nc(N[C@@H]3CCCC[C@@H]3N)nc21` , please.
70

I'm curious: which residual activity was measured for `Cc1nc2cc3nc(-c4cccs4)cnc3cc2n1C` tested on LRRK2 (human)?
106

Provide the documented residual activity with LRRK2 (human) as the system for `COc1ccc(CNC(=O)Nc2ncc([N+](=O)[O-])s2)cc1`
87.7
